# Assay System: Delta-type opioid receptor (Rattus norvegicus)
# Sequence (P33533 whole entry): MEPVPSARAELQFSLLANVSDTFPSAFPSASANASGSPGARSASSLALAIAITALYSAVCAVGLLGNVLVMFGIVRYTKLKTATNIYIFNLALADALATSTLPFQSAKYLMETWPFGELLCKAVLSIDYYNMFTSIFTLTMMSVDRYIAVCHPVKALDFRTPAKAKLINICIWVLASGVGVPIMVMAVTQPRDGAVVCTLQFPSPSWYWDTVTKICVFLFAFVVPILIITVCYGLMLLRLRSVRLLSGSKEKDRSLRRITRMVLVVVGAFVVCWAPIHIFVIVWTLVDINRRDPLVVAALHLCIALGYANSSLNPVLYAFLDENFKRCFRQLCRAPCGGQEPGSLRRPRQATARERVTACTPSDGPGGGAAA
# Assay Text: Inhibition of [3H]DADLE radioligand binding to rat brain opioid receptor delta 1.
Measure: pIC50
Expect pIC50 as a plain number equal to -log10 of the molar concentration.

Incoming: Give its pIC50 value. Item: CCCCN1CCC2(c3cccc(O)c3)CC1Cc1[nH]c3ccccc3c12 (stereo unspecified)
Outgoing: 7.74

Incoming: Give its pIC50 value. Item: CN1CCC2(c3cccc(O)c3)Cc3[nH]c4c(ccc5ccccc54)c3C1C2 (stereo unspecified)
Outgoing: 5.98

Incoming: Give its pIC50 value. Item: Oc1cccc(C23CCN(CCc4ccccc4)C(Cc4[nH]c5ccccc5c42)C3)c1 (stereo unspecified)
Outgoing: 8.24

Incoming: Give its pIC50 value. Item: Oc1cccc(C23CCN(Cc4ccccc4)C(Cc4[nH]c5ccccc5c42)C3)c1 (stereo unspecified)
Outgoing: 6.74

Incoming: Give its pIC50 value. Item: Oc1cccc(C23CCN(CC4CC4)C(Cc4[nH]c5ccccc5c42)C3)c1 (stereo unspecified)
Outgoing: 7.08
